# procedure details: Quantitative High-Throughput drug screen in 47 multiple myeloma cell lines against the NCATS MIPE library collection: JIM1_ECACC cell viability assay (AID 1918964)
# study conditions: JIM1 myeloma viability, CellTiter-Glo ATP luminescence, 48 h; series mostly up to 45.8 µM
Inconclusive results are not listed. Calls of active or inactive are those of the source. Calls follow the shape of the dose curve; as a rule, active = well fitted cell-killing curve with a large enough effect; inconclusive = small, poorly fitted or top-dose-only effect, or effect the other way; inactive = no such curve, though single readings can be large or run the other way.
Outcome codes: active, inactive

compound | label
CNC[C@@H](O)[C@@H](O)[C@H](O)[C@H](O)CO | inactive
CC[C@]1(O)C[C@H]2CN(CCc3c([nH]c4ccccc34)[C@@](C(=O)OC)(c3cc4c(cc3OC)N(C=O)[C@H]3[C@@](O)(C(=O)OC)[C@H](OC(C)=O)[C@]5(CC)C=CCN6CC[C@]43[C@@H]65)C2)C1 | active
CN(C)[C@@H](CCOc1cccc2ccccc12)c1ccccc1 | inactive
CCCc1cc(=O)[nH]c(=S)[nH]1 | inactive
Nc1cc(C(Cl)=C(Cl)Cl)c(S(N)(=O)=O)cc1S(N)(=O)=O | inactive
Cc1c(C(=O)NN2CCCCC2)nn(-c2ccc(Cl)cc2Cl)c1-c1ccc(Cl)cc1 | active
C[Se]CCC(N)C(=O)O (centres undefined) | inactive
CC(C)c1ccc2oc3nc(N)c(C(=O)O)cc3c(=O)c2c1 | inactive
C[C@]12CCC(=O)C=C1CC[C@@H]1[C@H]2[C@@H](O)C[C@@]2(C)[C@H]1CC[C@]2(O)C(=O)CO | inactive

---

# procedure details: qHTS of pediatric cancer cell lines to identify multiple opportunities for drug repurposing: Primary screen for SK-N-SH cells (AID 1347098); also: nearly all actives have a fitted effect of over 65% in size
# study conditions: SK-N-SH viability, CellTiter-Glo luminescence, 48 h; series mostly up to 57 µM
Records with an inconclusive call do not appear. Active and inactive are the calls of the source. Calls follow the shape of the dose curve; as a rule, active = well fitted cell-killing curve with a large enough effect; inconclusive = small, poorly fitted or top-dose-only effect; inactive = no such curve, though single readings can be large or run the other way. Peptide text beside a SMILES is read from it.
Outcome codes: active, inactive

compound | label
CC(=O)N1CCN(c2ccc(OC[C@H]3CO[C@](Cn4ccnc4)(c4ccc(Cl)cc4Cl)O3)cc2)CC1 | inactive
O=C(NOCC1CC1)c1ccc(F)c(F)c1Nc1ccc(I)cc1Cl | active
COC(=O)[C@H](Cc1ccccc1)NC(=O)[C@@H](N)CC(=O)O (H-Asp-Phe-OMe) | inactive
COCCCN1CCC(NC(=O)c2cc(Cl)c(N)c3c2OCC3)CC1 | inactive
CC(=O)Nc1ccc(O)cc1 | inactive
CNC[C@@H](O)[C@@H](O)[C@H](O)[C@H](O)CO | inactive
COCCCOc1ccnc(CS(=O)c2nc3ccccc3[nH]2)c1C (configuration not stated) | inactive
CC(C)Oc1ccc2c(=O)c(-c3ccccc3)coc2c1 | inactive
CNC[C@H](O)c1ccc(O)c(O)c1 | inactive
Cc1cccc(CN2CCN(C(c3ccccc3)c3ccc(Cl)cc3)CC2)c1 (configuration not stated) | inactive
O=C(NCCO[N+](=O)[O-])c1cccnc1 | inactive
CCc1nc(N)nc(N)c1-c1ccc(Cl)cc1 | inactive
COc1cc2c(cc1OC)C1CC(=O)C(CC(C)C)CN1CC2 (configuration not stated) | inactive
CCOC(=O)C1=C[C@@H](OC(CC)CC)[C@H](NC(C)=O)[C@@H](N)C1 | inactive
COC(=O)N[C@H](C(=O)N[C@@H](Cc1ccccc1)[C@@H](O)CN(Cc1ccc(-c2ccccn2)cc1)NC(=O)[C@@H](NC(=O)OC)C(C)(C)C)C(C)(C)C | inactive
OC(CN1CCN(c2cccc(Cl)c2)CC1)C(c1ccccc1)c1ccccc1 (configuration not stated) | active
Nc1nc(N)c(N=O)c(OCC2CCCCC2)n1 | active
CN(C)C(=O)COC(=O)Cc1ccc(OC(=O)c2ccc(N=C(N)N)cc2)cc1 | inactive
CCN(CC)CCOc1ccc(Nc2ncc3cc(-c4c(Cl)cccc4Cl)c(=O)n(C)c3n2)cc1 | active
O=C1CCc2ccc(OCCCCN3CCN(c4cccc(Cl)c4Cl)CC3)cc2N1 | inactive
CC(C)C[C@H](NC(=O)[C@H](Cc1ccccc1)NC(=O)c1cnccn1)B(O)O | active
Cc1ccc(C(=O)c2cc(O)c(O)c([N+](=O)[O-])c2)cc1 | inactive

---

# procedure details: qHTS of pediatric cancer cell lines to identify multiple opportunities for drug repurposing: Confirmatory screen for Rh41 cells (AID 1347123);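 also: 48 h compound exposure; nearly all actives have a fitted effect of over 60% in size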
# study conditions: Rh41 rhabdomyosarcoma cells, viability/cytotoxicity qHTS; series mostly up to 45.9 µM
Records with an inconclusive call do not appear. Calls of active or inactive are those of the source. Calls come from the whole dose curve; as a rule, active = well fitted cell-killing curve with a large enough effect; inconclusive = small, poorly fitted or top-dose-only effect; inactive = no such curve, though single readings can be large or run the other way.
Outcome codes: Y = active, N = inactive

chemical smiles | label
CCc1nc(N)nc(N)c1-c1ccc(Cl)cc1 | Y
Cc1c(C(=O)NN2CCCCC2)nn(-c2ccc(Cl)cc2Cl)c1-c1ccc(Cl)cc1 | Y
c1cnc2cc3c(cc2n1)C1CNCC3C1 | N

---

# Tested on: 7G8
# procedure details: qHTS profiling for inhibitors of Plasmodium falciparum proliferation (AID 504749); also: nearly all actives have a fitted effect of over 60% in size
# study conditions: P. falciparum in erythrocytes, SYBR Green DNA, 72 h; series mostly up to 28.7 µM
Results filed as inconclusive are left out. Activity calls are given as the source filed them. Calls come from the whole dose curve; as a rule, active = well fitted inhibition curve with a large enough effect; inconclusive = small, poorly fitted or top-dose-only effect; inactive = flat fitted curve, though single readings scatter.
Outcome codes: y for active, n for inactive

compound | label
CN(C)CCc1c[nH]c2ccc(Cn3cncn3)cc12 | n
Oc1ccc(OCc2ccccc2)cc1 | n
Cc1cc(=O)oc2cc(O)ccc12 | n
CCCCCCCCCCCCCCCCCCCCCCO | n
Nc1ccc(S(N)(=O)=O)cc1 | n
Nc1nc(Cl)nc2c1ncn2[C@H]1C[C@H](O)[C@@H](CO)O1 | n
Cc1cc2cc3c(C)cc(=O)oc3c(C)c2o1 | n
O=C(NCCO[N+](=O)[O-])c1cccnc1 | n
Clc1ccc(C(Cn2ccnc2)OCc2ccsc2Cl)c(Cl)c1 (configuration not stated) | y
C=C(c1ccc(C(=O)O)cc1)c1cc2c(cc1C)C(C)(C)CCC2(C)C | y
CN(C)C(=O)COC(=O)Cc1ccc(OC(=O)c2ccc(N=C(N)N)cc2)cc1 | n
CCOc1cc(CC(=O)N[C@@H](CC(C)C)c2ccccc2N2CCCCC2)ccc1C(=O)O | n

---

# System: N140
# procedure details: qHTS profiling for inhibitors of Plasmodium falciparum proliferation (AID 504749); also: nearly all actives have a fitted effect of over 60% in size
# study conditions: P. falciparum in erythrocytes, SYBR Green DNA, 72 h; series mostly up to 28.7 µM
Records with an inconclusive call do not appear. The source made the active and inactive calls. Calls come from the whole dose curve; as a rule, active = well fitted inhibition curve with a large enough effect; inconclusive = small, poorly fitted or top-dose-only effect; inactive = flat fitted curve, though single readings scatter.
Outcome codes: active, inactive

compound | label
Cc1nc(Nc2ncc(C(=O)Nc3c(C)cccc3Cl)s2)cc(N2CCN(CCO)CC2)n1 | active
Cc1c(OCC(F)(F)F)ccnc1CS(=O)c1nc2ccccc2[nH]1 (configuration not stated) | inactive
Cc1cc2cc3c(C)cc(=O)oc3c(C)c2o1 | inactive
CCCCc1ccc2nc(NC(=O)OC)[nH]c2c1 | inactive
Cc1ccc(C)c(OCCCC(C)(C)C(=O)O)c1 | inactive
O=C(O)CCNC(=O)c1ccc(N=Nc2ccc(O)c(C(=O)O)c2)cc1 | inactive
Cn1c(NCCN(CCO)CCCc2ccc([N+](=O)[O-])cc2)cc(=O)n(C)c1=O | inactive
O=c1oc2cc(O)ccc2s1 | inactive
CC[C@]1(O)C[C@H]2CN(CCc3c([nH]c4ccccc34)[C@@](C(=O)OC)(c3cc4c(cc3OC)N(C=O)[C@H]3[C@@](O)(C(=O)OC)[C@H](OC(C)=O)[C@]5(CC)C=CCN6CC[C@]43[C@@H]65)C2)C1 | active
CN1C(C(=O)Nc2ccccn2)=C(O)c2sccc2S1(=O)=O | inactive
COc1ccc(C2(C#N)CCC(C(=O)O)CC2)cc1OC1CCCC1 (configuration not stated) | inactive
CNC[C@H](O)c1ccc(O)c(O)c1 | inactive
CC1(C)NC(=O)N(c2ccc([N+](=O)[O-])c(C(F)(F)F)c2)C1=O | inactive
Nc1ccn([C@@H]2O[C@H](CO)[C@@H](O)C2O)c(=O)n1 (some centres not stated) | inactive
CCc1nc(N)nc(N)c1-c1ccc(Cl)cc1 | inactive
CN(C)CCc1c[nH]c2ccc(Cn3cncn3)cc12 | inactive
Cc1ncc([N+](=O)[O-])n1CC(C)O (configuration not stated) | inactive
O=C(NC(Cc1cc(=O)[nH]c2ccccc12)C(=O)O)c1ccc(Cl)cc1 (configuration not stated) | inactive
O=C(O)c1cccc(-c2noc(-c3ccccc3F)n2)c1 | inactive
Cc1c(C(=O)NN2CCCCC2)nn(-c2ccc(Cl)cc2Cl)c1-c1ccc(Cl)cc1 | active
N[C@@H](Cc1cc(I)c(Oc2cc(I)c(O)c(I)c2)c(I)c1)C(=O)O | inactive
CC(C)[C@H](N)C(=O)OCCOCn1cnc2c(=O)[nH]c(N)nc21 | inactive

---

# procedure details: S16 Schwann cell viability assay (CellTiter-Glo assay) (AID 624031); also: nearly all actives have a fitted effect of over 70% in size
# study conditions: S16 rat Schwann cells viability, 24 h; series mostly up to 57.5 µM
Records with an inconclusive call do not appear. Activity calls are given as the source filed them. The call rests on the fitted dose curve; in most records, active means well fitted cell-killing curve with a large enough effect; inconclusive means small, poorly fitted or top-dose-only effect, or effect the other way; inactive means flat fitted curve, though single readings scatter.
Outcome codes: active, inactive

molecule | label
CC(C)(S)[C@@H](N)C(=O)O | inactive
C[C@H](Cn1cnc2c(N)ncnc21)OCP(=O)(O)O | inactive
CCN(CCO)CCCC(C)Nc1ccnc2cc(Cl)ccc12 (stereo unspecified) | inactive
CCCCN(CCCC)CCC(O)c1cc2c(Cl)cc(Cl)cc2c2cc(C(F)(F)F)ccc12 (stereo unspecified) | inactive
Cc1ncc([N+](=O)[O-])n1CC(C)O (stereo unspecified) | inactive
CCCCC(CC)COC(=O)C(C#N)=C(c1ccccc1)c1ccccc1 (stereo unspecified) | inactive
O=C(O)c1cccnc1Nc1cccc(C(F)(F)F)c1 | inactive
CCC(C)(Oc1ccc(C2(c3ccc(OC(C)(CC)C(=O)O)cc3)CCCCC2)cc1)C(=O)O (stereo unspecified) | inactive
c1ccc2[nH]c(-c3cscn3)nc2c1 | inactive
C=C(c1ccc(C(=O)O)cc1)c1cc2c(cc1C)C(C)(C)CCC2(C)C | inactive
C[Se]CCC(N)C(=O)O (stereo unspecified) | inactive
COc1cc(OC)c(C(=O)CCCN2CCCC2)c(OC)c1 | inactive
COCCCOc1ccnc(CS(=O)c2nc3ccccc3[nH]2)c1C (stereo unspecified) | inactive
CN(C)c1ccc2nc3ccc(=[N+](C)C)cc-3sc2c1 | active
COc1ccc(C2(C#N)CCC(C(=O)O)CC2)cc1OC1CCCC1 (stereo unspecified) | inactive
CCCCc1ccc2nc(NC(=O)OC)[nH]c2c1 | inactive
Cc1cc(C2CCCCC2)n(O)c(=O)c1 | inactive
CCN(CC)CCOc1ccc(Cc2ccccc2)cc1 | inactive
CC1(C)NC(=O)N(c2ccc([N+](=O)[O-])c(C(F)(F)F)c2)C1=O | inactive
NNc1nncc2ccccc12 | inactive
COc1cc2c(cc1OC)C1CC(=O)C(CC(C)C)CN1CC2 (stereo unspecified) | inactive
